Target or system: PI3K alpha (Homo sapiens, UniProt P42336)
Sequence (P42336 whole entry, species assumed): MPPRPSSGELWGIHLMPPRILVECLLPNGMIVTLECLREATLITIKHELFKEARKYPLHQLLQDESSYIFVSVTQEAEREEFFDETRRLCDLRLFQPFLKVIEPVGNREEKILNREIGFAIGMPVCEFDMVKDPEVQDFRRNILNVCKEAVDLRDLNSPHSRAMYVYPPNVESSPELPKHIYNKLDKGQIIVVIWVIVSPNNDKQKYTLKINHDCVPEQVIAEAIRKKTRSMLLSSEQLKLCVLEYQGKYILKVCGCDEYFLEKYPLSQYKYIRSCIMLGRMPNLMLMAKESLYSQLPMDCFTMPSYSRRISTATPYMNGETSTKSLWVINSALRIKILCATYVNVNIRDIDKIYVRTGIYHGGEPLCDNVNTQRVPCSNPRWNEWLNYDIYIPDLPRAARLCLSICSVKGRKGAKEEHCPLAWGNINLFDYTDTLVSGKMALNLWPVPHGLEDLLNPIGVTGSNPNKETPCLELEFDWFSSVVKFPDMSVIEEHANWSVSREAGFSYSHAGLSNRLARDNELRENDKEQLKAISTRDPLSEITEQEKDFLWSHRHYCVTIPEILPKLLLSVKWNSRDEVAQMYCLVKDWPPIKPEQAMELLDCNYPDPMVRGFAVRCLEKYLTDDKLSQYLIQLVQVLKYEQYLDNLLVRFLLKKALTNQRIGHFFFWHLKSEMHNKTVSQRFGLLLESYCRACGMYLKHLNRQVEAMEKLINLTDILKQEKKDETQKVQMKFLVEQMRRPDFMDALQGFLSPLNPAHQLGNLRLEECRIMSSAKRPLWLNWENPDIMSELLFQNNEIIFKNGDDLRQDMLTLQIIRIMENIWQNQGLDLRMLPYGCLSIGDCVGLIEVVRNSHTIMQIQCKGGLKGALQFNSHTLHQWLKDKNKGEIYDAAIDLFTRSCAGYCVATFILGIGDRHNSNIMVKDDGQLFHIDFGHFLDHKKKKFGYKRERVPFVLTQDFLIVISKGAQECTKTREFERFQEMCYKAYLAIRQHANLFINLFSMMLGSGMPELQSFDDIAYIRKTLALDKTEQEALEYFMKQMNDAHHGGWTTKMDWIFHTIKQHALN
Sequence (P27986 whole entry partner, species assumed): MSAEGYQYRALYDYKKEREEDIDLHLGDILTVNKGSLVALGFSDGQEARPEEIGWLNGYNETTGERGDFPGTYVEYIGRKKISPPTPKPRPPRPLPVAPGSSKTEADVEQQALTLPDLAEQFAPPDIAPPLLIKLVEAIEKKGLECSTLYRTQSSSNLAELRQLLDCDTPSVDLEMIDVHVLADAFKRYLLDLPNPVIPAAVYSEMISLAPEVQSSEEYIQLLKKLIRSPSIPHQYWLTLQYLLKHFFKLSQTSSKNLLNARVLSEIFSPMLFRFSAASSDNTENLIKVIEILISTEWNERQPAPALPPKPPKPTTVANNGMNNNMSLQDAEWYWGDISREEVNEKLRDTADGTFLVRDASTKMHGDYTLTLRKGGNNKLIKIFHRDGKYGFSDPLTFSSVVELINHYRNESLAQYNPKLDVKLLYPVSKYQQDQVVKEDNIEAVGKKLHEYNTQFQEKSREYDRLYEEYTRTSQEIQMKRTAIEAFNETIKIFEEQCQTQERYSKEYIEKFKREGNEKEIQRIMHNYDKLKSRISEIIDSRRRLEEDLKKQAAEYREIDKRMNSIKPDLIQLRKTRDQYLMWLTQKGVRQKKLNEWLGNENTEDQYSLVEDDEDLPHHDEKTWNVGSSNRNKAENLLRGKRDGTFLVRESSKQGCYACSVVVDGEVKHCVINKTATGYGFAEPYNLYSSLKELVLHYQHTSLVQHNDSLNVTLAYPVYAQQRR
Experiment description: PI3K-α assay (ADP-Glo enzyme inhibition)
Assay type: biochemical
Condition: at 500 nm; read-out: In vitro PI3K α % of inhibition
Readout type: inhibition at 0.5 µM

Fc1ccc2c(c1)ncn2-c1nc(N2CCOCC2)nc(N2CCC(Oc3ccc(C(F)(F)F)cc3)CC2)n1; 50 to 70%

Prompt: Identify measured inhibition at 0.5 µM corresponding to CN(C(=O)C(F)(F)F)c1nc(N2CCOCC2)nc(N2CCC(Oc3ccc(F)cc3)CC2)n1
Response: > 70%

Prompt: Identify measured inhibition at 0.5 µM corresponding to FC(F)(F)Oc1ccc(OC2CCN(c3nc(N4CCOCC4)nc(-n4cnc5ccccc54)n3)CC2)cc1
Response: 50 to 70%

Prompt: Identify measured inhibition at 0.5 µM corresponding to FC(F)(F)c1ccccc1OC1CCN(c2nc(N3CCOCC3)nc(N(c3ccccc3)c3ccccc3)n2)CC1
Response: > 70%

Prompt: Identify measured inhibition at 0.5 µM corresponding to Fc1ccccc1OC1CCN(c2nc(N3CCOCC3)nc(-n3c(C(F)F)nc4ccccc43)n2)CC1
Response: 50 to 70%
